Source listed as patent US11434242B2.

- study_system: Dopamine beta hydroxylase (Homo sapiens)
- Construct: 125 μl of plasma; tissue Instituto Português do Sangue Transplantação; host or cells: human plasma from healthy donors
- test: Dopamine beta hydroxylase activity in human plasma
- Format: biochemical
- condition_summary: inhibitor 0.01 μM
observable: Plasma (0.01 μM), activity in % of control

Solved cases (10 shown):
1) Cl.Fc1ccc(Br)cc1[C@]12C[C@H]1c1c(CCNCC3CC3)[nH]c(=S)n1C2 [Example 186]	62.7 % of control
2) Cn1c(CC(=O)NC2CCCC2)c2n(c1=S)C[C@@]1(c3cc(Br)ccc3F)C[C@@H]21 [Example 272]	73.5 % of control
3) Cn1c(CC(=O)N2CCCC2)c2n(c1=S)C[C@@]1(c3cc(Br)ccc3F)C[C@@H]21 [Example 310]	65.9 % of control
4) O=C(Cc1[nH]c(=S)n2c1[C@@H]1C[C@]1(c1c(F)ccc(Cl)c1F)C2)NCC(F)(F)F [Example 150]	64.8 % of control
5) Cl.Cn1c(CCN[C@@H]2CCOC2)c2n(c1=S)C[C@H](c1c(F)ccc(Br)c1F)C2 [Example 256]	61.7 % of control
6) Cn1c(CC(=O)Nc2ncco2)c2n(c1=S)C[C@@H](c1c(F)ccc(F)c1F)C2 [Example 286]	73.8 % of control
7) O=C(Cc1[nH]c(=S)n2c1C[C@@H](c1c(F)ccc(Br)c1F)C2)N1CCC2(CCOC2)C1 (stereo partly shown) [Example 138]	46.6 % of control
8) O=C(Cc1[nH]c(=S)n2c1C[C@H](c1c(F)c(F)cc(F)c1F)C2)NC1COC1 [Example 393]	90.6 % of control
9) Cn1c(CC(=O)NC2CCCC2)c2n(c1=S)C[C@@]1(c3cc(Cl)ccc3F)C[C@@H]21 [Example 273]	86.6 % of control
10) O=C(Cc1[nH]c(=S)n2c1[C@@H]1C[C@]1(c1cc(Br)ccc1F)C2)N1CCOCC1 [Example 157]	84.2 % of control

// query Endpoint output: Plasma (0.01 μM), activity in % of control of Cn1c(CC(=O)N2CCCCC2)c2n(c1=S)C[C@@]1(c3cc(Br)ccc3F)C[C@@H]21 [Example 312] . Value?
// result 84.8 % of control

// query Endpoint output: Plasma (0.01 μM), activity in % of control of Cl.Cn1c(CC(=O)Nc2ccncc2)c2n(c1=S)C[C@H](c1c(F)ccc(Cl)c1F)C2 [Example 287] . Value?
// result 66.8 % of control

// query Endpoint output: Plasma (0.01 μM), activity in % of control of Cn1c(CC(=O)NC2CCCCC2)c2n(c1=S)C[C@@]1(c3cc(Br)ccc3F)C[C@@H]21 [Example 294] . Value?
// result 39.7 % of control

// query Endpoint output: Plasma (0.01 μM), activity in % of control of Cl.Fc1ccc(F)c([C@H]2Cc3c(CCNCC4CCOCC4)[nH]c(=S)n3C2)c1F [Example 473] . Value?
// result 98.9 % of control

// query Endpoint output: Plasma (0.01 μM), activity in % of control of Cn1c(CC(=O)NCc2cccnc2)c2n(c1=S)C[C@H](c1c(F)ccc(Cl)c1F)C2 [Example 290] . Value?
// result 37.6 % of control

// query Endpoint output: Plasma (0.01 μM), activity in % of control of Cl.Fc1cc(F)c(F)c([C@H]2Cc3c(CCN4CCCC4)[nH]c(=S)n3C2)c1F [Example 198] . Value?
// result 52.2 % of control

// query Endpoint output: Plasma (0.01 μM), activity in % of control of O=C(Cc1[nH]c(=S)n2c1C[C@H](c1c(F)ccc(F)c1F)C2)N[C@@H]1CCOC1 [Example 368] . Value?
// result 104.4 % of control

// query Endpoint output: Plasma (0.01 μM), activity in % of control of N#CN/C(N)=N/Cc1[nH]c(=S)n2c1C[C@@H](c1c(F)ccc(Br)c1F)C2 [Example 224] . Value?
// result 22.6 % of control

// query Endpoint output: Plasma (0.01 μM), activity in % of control of Cn1c(CC(=O)N[C@@H]2CCOC2)c2n(c1=S)C[C@@]1(c3cc(Cl)ccc3F)C[C@@H]21 [Example 281] . Value?
// result 107.9 % of control

// query Endpoint output: Plasma (0.01 μM), activity in % of control of O=C(NCc1[nH]c(=S)n2c1C[C@@H](c1c(F)ccc(Cl)c1F)C2)C1CC1 [Example 220] . Value?
// result 76.5 % of control

// query Endpoint output: Plasma (0.01 μM), activity in % of control of CN(Cc1cccnc1)C(=O)Cc1[nH]c(=S)n2c1C[C@@H](c1c(F)ccc(Cl)c1F)C2 [Example 134] . Value?
// result 24.9 % of control

// query Endpoint output: Plasma (0.01 μM), activity in % of control of Cn1c(CCC(N)=O)c2n(c1=S)C[C@@H](c1c(F)cccc1F)C2 [Example 263] . Value?
// result 103.3 % of control

// query Endpoint output: Plasma (0.01 μM), activity in % of control of O=C(O)CCc1[nH]c(=S)n2c1C[C@H](c1c(F)c(F)cc(F)c1F)C2 [Example 202] . Value?
// result 67.7 % of control

// query Endpoint output: Plasma (0.01 μM), activity in % of control of F.Fc1ccc(Br)cc1[C@]12C[C@H]1c1c(CCNc3ccccn3)[nH]c(=S)n1C2 [Example 192] . Value?
// result 73.4 % of control

// query Endpoint output: Plasma (0.01 μM), activity in % of control of Cn1c(CC(=O)N2CCNCC2)c2n(c1=S)C[C@@]1(c3cc(Cl)ccc3F)C[C@@H]21 [Example 320] . Value?
// result 90.3 % of control

// query Endpoint output: Plasma (0.01 μM), activity in % of control of F.Fc1ccc(Br)cc1[C@]12C[C@H]1c1c(CCNC3CC3)[nH]c(=S)n1C2 [Example 187] . Value?
// result 72.6 % of control

// query Endpoint output: Plasma (0.01 μM), activity in % of control of CN(C(=O)Cc1c2n(c(=S)n1C)C[C@H](c1c(F)ccc(Cl)c1F)C2)C1COC1 [Example 429] . Value?
// result 37.8 % of control

// query Endpoint output: Plasma (0.01 μM), activity in % of control of CS(=O)(=O)C1CCN(CCc2[nH]c(=S)n3c2C[C@H](c2c(F)ccc(Br)c2F)C3)CC1 [Example 179] . Value?
// result 93.5 % of control

// query Endpoint output: Plasma (0.01 μM), activity in % of control of CN(C(=O)Cc1c2n(c(=S)n1C)C[C@H](c1c(F)ccc(Br)c1F)C2)C1CCOCC1 [Example 405] . Value?
// result 50.7 % of control

// query Endpoint output: Plasma (0.01 μM), activity in % of control of [2H]C([2H])([2H])n1c(CC(=O)NC2CCOCC2)c2n(c1=S)C[C@@]1(c3cc(Br)ccc3F)C[C@@H]21 [Example 463] . Value?
// result 29.1 % of control

// query Endpoint output: Plasma (0.01 μM), activity in % of control of O=C(Cc1[nH]c(=S)n2c1C[C@H](c1c(F)c(F)cc(F)c1F)C2)N[C@H]1CC[C@H](O)CC1 [Example 28] . Value?
// result 78.1 % of control

* * *

- study_system: Dopamine beta hydroxylase (Homo sapiens, UniProt P09172)
- Construct: 125 μl of plasma; tissue Instituto Português do Sangue Transplantação; host or cells: human plasma from healthy donors
- Sequence (P09172 40-617 limits assumed): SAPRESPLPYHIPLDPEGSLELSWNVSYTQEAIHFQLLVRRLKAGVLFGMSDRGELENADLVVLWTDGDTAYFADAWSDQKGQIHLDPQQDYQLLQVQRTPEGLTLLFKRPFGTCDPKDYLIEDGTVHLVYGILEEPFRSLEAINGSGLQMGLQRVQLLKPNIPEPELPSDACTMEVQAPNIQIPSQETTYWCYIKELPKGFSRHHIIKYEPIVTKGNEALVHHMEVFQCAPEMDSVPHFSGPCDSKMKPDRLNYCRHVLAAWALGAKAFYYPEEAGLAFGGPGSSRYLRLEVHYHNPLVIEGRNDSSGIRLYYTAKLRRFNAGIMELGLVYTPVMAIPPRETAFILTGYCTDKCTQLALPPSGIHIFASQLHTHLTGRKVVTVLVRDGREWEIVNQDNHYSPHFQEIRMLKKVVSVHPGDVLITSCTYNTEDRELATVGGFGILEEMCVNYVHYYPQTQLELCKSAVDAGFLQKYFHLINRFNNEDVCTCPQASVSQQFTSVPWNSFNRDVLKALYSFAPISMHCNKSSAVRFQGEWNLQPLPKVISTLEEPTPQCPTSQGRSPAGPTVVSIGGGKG
- test: Dopamine beta hydroxylase activity in human plasma
- Format: biochemical
- condition_summary: inhibitor 0.01 μM
Below is a list of entries, each paired with its recorded Plasma (0.01 μM), activity in % of control value.

1) CN(C(=O)Cc1c2n(c(=S)n1C)C[C@@]1(c3cc(Br)ccc3F)C[C@@H]21)C1COC1 [Example 438]	64.0 % of control
2) Cn1c(CC(=O)NCC2CCOCC2)c2n(c1=S)C[C@H](c1cc(F)cc(F)c1)C2 [Example 428]	68.2 % of control
3) O=C(Cc1[nH]c(=S)n2c1C[C@H](c1c(F)c(F)cc(F)c1F)C2)N[C@@H]1CCCOC1 [Example 386]	101.8 % of control

We next turn to a different molecule, shown below.
// query Endpoint output: Plasma (0.01 μM), activity in % of control of Cn1c(CC(=O)NC2CCCC2)c2n(c1=S)C[C@@]1(c3c(F)ccc(Cl)c3F)C[C@@H]21 [Example 271] . Value?
// result 62.1 % of control

* * *

- study_system: Dopamine beta hydroxylase (Homo sapiens)
- Construct: 125 μl of plasma; tissue Instituto Português do Sangue Transplantação; host or cells: human plasma from healthy donors
- test: Dopamine beta hydroxylase activity in human plasma
- Format: biochemical
- condition_summary: inhibitor 0.1 μM
observable: Plasma (0.1 μM), activity in % of control

Solved cases (3 shown):
1. O=C(Cc1[nH]c(=S)n2c1C[C@@H](c1c(F)ccc(Cl)c1F)C2)Nc1ccccn1	17.1 % of control
2. O=C(NCc1[nH]c(=S)n2c1C[C@@H](c1c(F)ccc(Cl)c1F)C2)C1CC1	17.7 % of control
3. Fc1ccc(F)c([C@H]2Cc3c(CCCN4CCCC4)[nH]c(=S)n3C2)c1F	5.1 % of control

// query Endpoint output: Plasma (0.1 μM), activity in % of control of CN(C(=O)Cc1c2n(c(=S)n1C)C[C@H](c1c(F)ccc(F)c1F)C2)C1COC1 . Value?
// result 36.6 % of control

// query Endpoint output: Plasma (0.1 μM), activity in % of control of Fc1ccc(Br)c(F)c1[C@@H]1Cc2c(CCN3CCOCC3)[nH]c(=S)n2C1 . Value?
// result 41.7 % of control

// query Endpoint output: Plasma (0.1 μM), activity in % of control of Cn1cc(NC(=O)Cc2c3n(c(=S)n2C)C[C@H](c2c(F)ccc(Cl)c2F)C3)cn1 . Value?
// result 28.2 % of control
